Values were extracted from PubChem BioAssay (EPA / NIEHS).

- Procedure Text: BSK_3C_Proliferation: Cell Proliferation Assessment in the BioMAP Diversity Plus: 3C Assay (AID 2283006)
- Details: primary human endothelial cells (HUVEC)
Active and inactive are the calls of the source. How the source made its calls: active means hit-call score of the fitted dose curve at least 0.9, where 1 is the maximum; inactive means score below 0.9.
Parameter call: string, one of 1.0 for active, 0.0 for inactive

Examples from the recorded data:
# Compound, Class Label
data = [
    ("C1CN(CCOCCN2CCOCC2)CCO1", 0.0),
    ("Sc1nc2ccccc2s1", 0.0),
    ("CN(C)CCC(c1ccc(Cl)cc1)c1ccccn1 (centres undefined)", 0.0),
]

# input for lookup
[Q] How did this test come out for CCCCCCCCCCCCCCCCCC[N+](C)(C)C ?
[A] 1.0

====

- Target Or System: Estrogen receptor beta (Homo sapiens) (UniProt Q92731)
- Sequence (Q92731 whole entry, looked up, the tested form may be a part): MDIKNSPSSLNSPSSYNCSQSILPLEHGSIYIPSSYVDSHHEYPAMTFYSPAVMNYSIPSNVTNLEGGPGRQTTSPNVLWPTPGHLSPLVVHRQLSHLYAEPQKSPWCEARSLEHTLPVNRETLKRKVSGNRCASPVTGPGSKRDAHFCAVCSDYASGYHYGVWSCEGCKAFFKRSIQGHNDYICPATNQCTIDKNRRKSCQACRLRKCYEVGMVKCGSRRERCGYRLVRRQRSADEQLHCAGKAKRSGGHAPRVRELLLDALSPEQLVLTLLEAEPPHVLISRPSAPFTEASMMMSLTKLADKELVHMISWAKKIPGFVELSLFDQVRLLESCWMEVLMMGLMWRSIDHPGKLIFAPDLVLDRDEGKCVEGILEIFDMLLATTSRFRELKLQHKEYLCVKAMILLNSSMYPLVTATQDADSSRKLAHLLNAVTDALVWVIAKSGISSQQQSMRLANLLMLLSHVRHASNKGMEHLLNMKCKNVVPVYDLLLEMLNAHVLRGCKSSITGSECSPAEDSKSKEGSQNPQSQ
- Procedure Text: OT_ER_ERbERb_1440: Odyssey Thera (OT) 24-hour HEK293T Protein-Complementation Assay for Estrogen Receptor-beta/-beta Homodimer (AID 2283380);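 further: fluorescence gain from ER beta LBD homodimer complementation read by laser scanning cytometry; scored as signal increase over DMSO baseline for both agonists and antagonists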
Activity calls are given as the source filed them. The calls were made as follows: active = hit-call score of the fitted dose curve at least 0.9, where 1 is the maximum; inconclusive = response in the unintended direction; inactive = score below 0.9.
Please state which outcome applies, choosing from label 1 (active), label 0 (inactive)

# Compound, Target Or System, Class Label
records = [
    ("O=C1NC(=O)C2CC=CCC12 (stereo unspecified)", "Estrogen receptor beta (Homo sapiens) (UniProt Q92731)", "label 0"),
]

Shift focus to the following entry.
[Q] Recorded test call requested for c1ccc(CNc2ncnc3nc[nH]c23)cc1
[A] label 0

====

- Tested on: Brachyury (BRA) Protein Expression, Deisenroth Lab, TBXT (gene 6862)
- Procedure Text: CCTE_Deisenroth_DEVTOX-GLR_Pluri_BRA: CCTE's DevTox GLR-Pluri Assay Evaluation of Brachyury (BRA) Protein Expression, Deisenroth Lab (AID 2284429)
Results filed as inconclusive are left out. Activity calls are given as the source filed them. How the source made its calls: active means hit-call score of the fitted dose curve at least 0.9, where 1 is the maximum; inconclusive means response in the unintended direction; inactive means score below 0.9.
// allowed return values: active, inactive

Example cases with answers are listed next.
# Molecule, Target Or System, Class Label
records = [
    ("Nc1cccc2c1CN(C1CCC(=O)NC1=O)C2=O (stereo unspecified)", "Brachyury (BRA) Protein Expression, Deisenroth Lab, TBXT (gene 6862)", "inactive"),
    ("CN1CCN2c3ccccc3Cc3ccccc3C2C1 (stereo unspecified)", "Brachyury (BRA) Protein Expression, Deisenroth Lab, TBXT (gene 6862)", "active"),
]

[Q] Entry Cc1nc2sccn2c(=O)c1CCN1CCC(=C(c2ccc(F)cc2)c2ccc(F)cc2)CC1 : call = ?
[A] active

[Q] Check CCN(CC)CCNC(=O)c1c(C)[nH]c(/C=C2\C(=O)Nc3ccc(F)cc32)c1C too.
[A] active

[Q] Quick one: O=C1Cc2cc(CCN3CCN(c4nsc5ccccc45)CC3)c(Cl)cc2N1
[A] active

[Q] // next record CCCCCN=C(N)N/N=C/c1c[nH]c2ccc(OC)cc12
[A] active

====

- Procedure Text: TOX21_p53_BLA_p4_viability: Viability Assessment in the Tox21 HCT-116 p53 Agonism Beta-lactamase Assay, Phase 4 (AID 2283597);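 further: hits lower the luminescence signal meaning cytotoxicity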
Inconclusive results are not listed. Active and inactive are the calls of the source. How the source made its calls: active means hit-call score of the fitted dose curve at least 0.9, where 1 is the maximum; inconclusive means response in the unintended direction; inactive means score below 0.9.
Please answer using one outcome listed in active, inactive

Completed entries (count: 4):
# Compound, Class Label
measured = [
    ("COc1ccc(NC(C)=O)cc1", "inactive"),
    ("CCCCCCCCCCC(=O)O", "inactive"),
    ("O=C1NCCN1", "inactive"),
    ("CC[C@@H](C)[C@@H](N)C(=O)O", "inactive"),
]

[Q] For CS(=O)(=O)OCCCNCCCOS(C)(=O)=O , what call appears in the results of this test?
[A] inactive

[Q] Further, for C#CCC(Cc1cnc2nc(N)nc(N)c2n1)c1ccc(C(=O)N[C@@H](CCC(=O)O)C(=O)O)cc1 (some centres undefined) ?
[A] active

[Q] What do you have for O=C(Nc1ccc(O)cc1)c1ccccc1O ?
[A] inactive

[Q] Item: ICCc1ccccc1
[A] inactive

[Q] One more compound: CC12CC3CC(C)(C1)CC(N)(C3)C2
[A] inactive
